Hey, just so you know, these numbers are from ChEMBL document CHEMBL1153558.

Reported log10(MIC50) values for the following molecules.
# System: Sporothrix globosa
# ASSAY NOTES: Antifungal activity against Sporothrix globosa after 72 hrs by microdilution method
# Type: functional
Recall that a logarithmic scale is used here: each number is log10 of MIC50 in µg/mL.

Query block: Query: log10(MIC50); subject: "C[C@@H](n1cnc2cc(Cl)ccc2c1=O)[C@](O)(Cn1cncn1)c1ccc(F)cc1F"
Result block: 1.20

Query block: Check CCC(C)n1ncn(-c2ccc(N3CCN(c4ccc(OCC5COC(Cn6cncn6)(c6ccc(Cl)cc6Cl)O5)cc4)CC3)cc2)c1=O (configuration not stated) too.
Result block: 1.51

---

Reported MIC90 values for the following compounds.
# System: Sporothrix
# ASSAY NOTES: Antifungal activity against Sporothrix brasiliensis after 72 hrs by microdilution method
# Type: functional
Numbered stars: 1 amine (or outer) side, 2 acyl side, 3 side chain; on linkers, the order of the positions; unused ones are H or OH. Bridge positions count the residues as written; N and C are the ends. Square brackets hold non-standard residues; d marks the D form. Peptide text beside a SMILES is read from it. * marks the point of attachment. hTyr(3S-OH,4S-OH,3'-OSO3H) = N[C@H](C(=O)O)[C@H](O)[C@@H](O)c1ccc(O)c(OS(=O)(=O)O)c1; Orn(4R-OH,5R-OH) = O=C([C@H](C[C@@H](O)[C@@H](O)N[*:3])N[*:1])[*:2]; Pro(3S-OH,4S-Me) = C[C@H]1CN[C@H](C(=O)O)[C@H]1O; X1 = CCCCCOc1ccc(-c2cc(-c3ccc(C(=O)*)cc3)no2)cc1; Gln(3R-OH) = NC(=O)C[C@@H](O)[C@H](N)C(=O)O; Hyp = O=C(O)[C@@H]1C[C@@H](O)CN1

Would you please look over these solved cases?
Nc1nc(=O)[nH]cc1F [FLUCYTOSINE] ... 128 µg/mL
CN(C/C=C/C#CC(C)(C)C)Cc1cccc2ccccc12 [TERBINAFINE] ... 0.25 µg/mL
Clc1cc(Cl)c2c(c1)CCc1ccccc1C2n1ccnc1 (configuration not stated) [EBERCONAZOLE] ... 1 µg/mL
C[C@@H](c1ncncc1F)[C@](O)(Cn1cncn1)c1ccc(F)cc1F [VORICONAZOLE] ... 8 µg/mL
CC(=O)N1CCN(c2ccc(OCC3COC(Cn4ccnc4)(c4ccc(Cl)cc4Cl)O3)cc2)CC1 (configuration not stated) [KETOCONAZOLE] ... 0.25 µg/mL
C[C@@H](c1nc(-c2ccc(C#N)cc2)cs1)[C@](O)(Cn1cncn1)c1ccc(F)cc1F [RAVUCONAZOLE] ... 1 µg/mL

Query block: Observed MIC90 on Sporothrix for C[C@@H](n1cnc2cc(Cl)ccc2c1=O)[C@](O)(Cn1cncn1)c1ccc(F)cc1F [ALBACONAZOLE] , please.
Result block: 4 µg/mL

Query block: Check CC[C@@H]([C@H](C)O)n1ncn(-c2ccc(N3CCN(c4ccc(OC[C@@H]5CO[C@@](Cn6cncn6)(c6ccc(F)cc6F)C5)cc4)CC3)cc2)c1=O [POSACONAZOLE] too.
Result block: 1 µg/mL

Query block: Check CCCCCOc1ccc(-c2cc(-c3ccc(C(=O)N[C@H]4C[C@@H](O)[C@@H](O)NC(=O)[C@@H]5[C@@H](O)[C@@H](C)CN5C(=O)[C@H]([C@H](O)CC(N)=O)NC(=O)[C@H]([C@H](O)[C@@H](O)c5ccc(O)c(OS(=O)(=O)O)c5)NC(=O)[C@@H]5C[C@@H](O)CN5C(=O)[C@H]([C@@H](C)O)NC4=O)cc3)no2)cc1 [MICAFUNGIN] (X1-[Orn(4R-OH,5R-OH)]T[Hyp][hTyr(3S-OH,4S-OH,3'-OSO3H)][Gln(3R-OH)][Pro(3S-OH,4S-Me)]; lactam 1-C) too.
Result block: 256 µg/mL

Query block: Check C[C@@H]1[C@H](O)[C@@H](C)/C=C/C=C/C=C/C=C/C=C/C=C/C=C/[C@H](O[C@@H]2O[C@H](C)[C@@H](O)[C@H](N)[C@@H]2O)C[C@@H]2O[C@](O)(C[C@@H](O)C[C@@H](O)[C@H](O)CC[C@@H](O)C[C@@H](O)CC(=O)O[C@H]1C)C[C@H](O)[C@H]2C(=O)O [AMPHOTERICIN B] too.
Result block: 4 µg/mL

Query block: Check CCC(C)n1ncn(-c2ccc(N3CCN(c4ccc(OCC5COC(Cn6cncn6)(c6ccc(Cl)cc6Cl)O5)cc4)CC3)cc2)c1=O (configuration not stated) [ITRACONAZOLE] too.
Result block: 1 µg/mL

Query block: Check OC(Cn1cncn1)(Cn1cncn1)c1ccc(F)cc1F [FLUCONAZOLE] too.
Result block: 128 µg/mL
